Each recorded value in this set is attributed to PubChem BioAssay (Tox21).

- measurement protocol: qHTS assay to identify small molecule agonists of H2AX - cell viability counter screen (AID 1224847); also: nearly all actives have a fitted effect of over 30% in size
- measurement conditions: CHO-K1 viability, CellTiter-Glo luminescence, 3 h; series mostly up to 154 µM
Inconclusive results are not listed. The source made the active and inactive calls. Calls follow the shape of the full dose curve.
Outcome codes: label 1 = active, label 0 = inactive

CN1CCN(C2Cc3ccccc3Sc3ccc(Cl)cc32)CC1 (stereo not given) :: label 0
CCOC(=O)N1CCC(=C2c3ccc(Cl)cc3CCc3cccnc32)CC1 :: label 1
O=C(O)CCn1c2c(c3ccccc31)C[C@H](NS(=O)(=O)c1ccc(F)cc1)CC2 :: label 0
Cc1cc(=O)[nH]c(=O)[nH]1 :: label 0
C=CCCCCCCC=C :: label 0

###

- target desc: Progesterone receptor (Homo sapiens)
- measurement protocol: qHTS assay to identify small molecule antagonists of the progesterone receptor (PR) signaling pathway (AID 1346795); also: % is scaled to controls: 0 for no effect and ±100 for the full control effect
- measurement conditions: PR-UAS-bla HEK293T, beta-lactamase FRET ratio, 16 h; series mostly up to 92.4 µM
Records with an inconclusive call do not appear. Calls of active or inactive are those of the source. The call rests on the fitted dose curve; in most records, active means well fitted inhibition curve with a large enough effect in the signal ratio in the repeat runs (not every such curve was filed as active); inconclusive means weak or mixed curves; inactive means flat fitted curve, though single readings scatter; the % refers to the signal ratio.
readout: outcome

CC1(C)C(=O)N(CO)C(=O)N1CO :: inactive
CN(C)CCN1CCOCC1 :: inactive
CN1[C@@H]2CC[C@H]1CC(OC(=O)C(CO)c1ccccc1)C2 (stereo partly drawn) :: inactive

###

- target desc: Glucocorticoid receptor (Homo sapiens) (UniProt P04150)
- Sequence (P04150 whole entry, looked up): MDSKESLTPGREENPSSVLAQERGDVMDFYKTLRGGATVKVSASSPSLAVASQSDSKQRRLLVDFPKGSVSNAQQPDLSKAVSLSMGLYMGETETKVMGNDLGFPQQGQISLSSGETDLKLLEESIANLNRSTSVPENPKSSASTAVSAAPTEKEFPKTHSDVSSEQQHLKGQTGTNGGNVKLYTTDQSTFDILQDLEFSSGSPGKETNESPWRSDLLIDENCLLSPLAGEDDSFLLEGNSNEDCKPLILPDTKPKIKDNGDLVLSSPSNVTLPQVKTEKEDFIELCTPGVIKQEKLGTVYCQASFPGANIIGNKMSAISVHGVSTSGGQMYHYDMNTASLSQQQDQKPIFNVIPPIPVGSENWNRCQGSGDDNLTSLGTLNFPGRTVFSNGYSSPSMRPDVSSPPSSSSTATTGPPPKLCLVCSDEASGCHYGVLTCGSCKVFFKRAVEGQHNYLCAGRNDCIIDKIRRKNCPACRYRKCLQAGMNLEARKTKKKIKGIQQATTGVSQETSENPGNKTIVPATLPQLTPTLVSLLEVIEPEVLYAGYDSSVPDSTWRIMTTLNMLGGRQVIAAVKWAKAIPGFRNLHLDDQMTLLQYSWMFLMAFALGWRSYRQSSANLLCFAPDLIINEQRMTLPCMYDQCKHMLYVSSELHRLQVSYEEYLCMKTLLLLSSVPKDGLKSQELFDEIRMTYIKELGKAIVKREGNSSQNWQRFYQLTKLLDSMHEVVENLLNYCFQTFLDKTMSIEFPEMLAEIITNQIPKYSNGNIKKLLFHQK
- measurement protocol: qHTS assay to identify small molecule antagonists of the glucocorticoid receptor (GR) signaling pathway (AID 720692)
- measurement conditions: GR-bla HeLa, beta-lactamase FRET ratio, dexamethasone-stimulated, 18 h; series mostly up to 58.5 µM
Records with an inconclusive call do not appear. The source made the active and inactive calls. The call rests on the fitted dose curve; in most records, active means well fitted inhibition curve with a large enough effect in the signal ratio in the repeat runs (not every such curve was filed as active); inconclusive means weak or mixed curves, or effect the other way; inactive means no such curve, though single readings can be large or run the other way; the % refers to the signal ratio.
Outcome codes: t (active), f (inactive)

S=P(N1CC1)(N1CC1)N1CC1 :: f
CCCCNc1c(C(=O)OCC)c(C)nc2c1cnn2CC :: f
CC(C)N=C(N)/N=C(\N)Nc1ccc(Cl)cc1 :: f
N#CSCSc1nc2ccccc2s1 :: t

###

- measurement protocol: qHTS assay to identify small molecule that activate the aryl hydrocarbon receptor (AhR) signaling pathway - cell viability counter screen (AID 743086); also: nearly all actives have a fitted effect of over 45% in size
- measurement conditions: HepG2-AhR-luc viability, CellTiter-Fluor, 24 h; series mostly up to 70.3 µM
Inconclusive results are not listed. The source made the active and inactive calls. Calls follow the shape of the dose curve; as a rule, active = well fitted cell-killing curve with a large enough effect in the repeat runs; inconclusive = weak or mixed curves, or effect the other way; inactive = flat fitted curve, though single readings scatter.
Outcome codes: active, inactive

CCCOc1sc(C(=O)N2CCC(c3cc(CN)ccc3F)CC2)c(C)c1Br :: active
CC1=C(/C=C/C(C)=C/C=C/C(C)=C\C=O)C(C)(C)CCC1 :: inactive
O=S(=O)(O)CCCN1CCOCC1 :: inactive

###

- measurement protocol: qHTS RealTime-Glo MT Cell Viability Assay in HepG2 cells - 24 hour (AID 1224867); also: nearly all actives have a fitted effect of over 50% in size
- measurement conditions: RealTime-Glo luminescence; series mostly up to 76.8 µM
- Text: U.S. Tox21 Program National Center for Advancing Translational Sciences [NCATS] NIH Chemical Genomics Center [NCGC] U.S. Environmental Protection Agency [EPA] National Institutes of Environmental Health Sciences [NIEHS] National Toxicology Program [NTP] U.S. Food and Drug Administration [FDA] Tox21 Assay Overview: Measure of cell viability is critical in the cell-base assay. Analysis of cell viability is necessary for the characterization of cell responses to cytotoxic drugs and environmental stress. […]
Inconclusive results are not listed. Activity calls are given as the source filed them. Calls follow the shape of the dose curve; as a rule, active = well fitted cell-killing curve with a large enough effect in the repeat runs; inconclusive = weak or mixed curves; inactive = flat fitted curve, though single readings scatter.
Outcome codes: active, inactive

CCCCCCCCCCCCCC[n+]1ccccc1 :: active
Cc1c(-c2ccc(O)cc2)n(Cc2ccc(OCCN3CCCCCC3)cc2)c2ccc(O)cc12 :: active
C=CC(=O)OCCOCC(CC)(COCCOC(=O)C=C)COCCOC(=O)C=C :: active
Nc1cc(Cl)c([N+](=O)[O-])cc1O :: inactive
CN(C)CCOC(c1ccccc1)c1ccccc1 (tested in a mixture with another compound) :: inactive
O=c1cccc[nH]1 :: inactive
OCCN1CN(CCO)CN(CCO)C1 :: inactive

###

- target desc: Cytochrome P450 2D6 (Homo sapiens) (UniProt P10635)
- Sequence (P10635 whole entry, looked up): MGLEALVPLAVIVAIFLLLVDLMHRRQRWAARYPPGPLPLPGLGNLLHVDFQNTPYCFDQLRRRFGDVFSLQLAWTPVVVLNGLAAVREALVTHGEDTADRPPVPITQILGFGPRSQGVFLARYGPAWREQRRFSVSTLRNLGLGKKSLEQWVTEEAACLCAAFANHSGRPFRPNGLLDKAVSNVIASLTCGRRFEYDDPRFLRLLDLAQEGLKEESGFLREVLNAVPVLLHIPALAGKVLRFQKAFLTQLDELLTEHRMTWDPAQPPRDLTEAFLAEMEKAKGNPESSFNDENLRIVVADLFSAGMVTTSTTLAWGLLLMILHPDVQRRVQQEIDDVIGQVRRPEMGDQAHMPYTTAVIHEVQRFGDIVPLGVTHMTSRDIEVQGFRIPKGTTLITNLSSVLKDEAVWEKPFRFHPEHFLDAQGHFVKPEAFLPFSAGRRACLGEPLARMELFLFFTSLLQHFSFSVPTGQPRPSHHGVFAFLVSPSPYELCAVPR
- measurement protocol: Cytochrome P450 Family 2 Subfamily D Member 6 (CYP2D6) small molecule antagonists: luciferase reporter qHTS assay (AID 1671196); also: nearly all actives have a fitted effect of over 50% in size
- measurement conditions: P450-Glo CYP2D6 enzyme assay, luciferin luminescence, 1 h; series mostly up to 115 µM
Inconclusive results are not listed. The source made the active and inactive calls. Calls come from the whole dose curve; as a rule, active = well fitted inhibition curve with a large enough effect in the repeat runs; inconclusive = weak or mixed curves; inactive = no such curve, though single readings can be large or run the other way.
Outcome codes: active, inactive

CC(C)=CC1CC(C)CCO1 (stereo not drawn) :: inactive
Cc1ccc(N)cc1O :: active
CC(NCCC(c1ccccc1)c1ccccc1)c1ccccc1 (stereo not drawn) :: active
Clc1cccnc1 :: inactive
CC1CCCCC1 :: inactive
C(=C/c1ccccc1)/c1ccccc1 :: inactive
CCOC(=O)CC(C)O (stereo not drawn) :: inactive
CN1CN(C)CN(C)C1 :: inactive
O=C(O)CC(=O)O :: active
CN1CCN(C2Cc3ccccc3Sc3ccc(Cl)cc32)CC1 (stereo not drawn) :: active
O=C(O)CCn1c2c(c3ccccc31)C[C@H](NS(=O)(=O)c1ccc(F)cc1)CC2 :: inactive
CCCCCCCCCCCCCCCC :: inactive
Brc1ccccn1 :: inactive
CC1CCCCN1CCCOC(=O)c1ccc(OC2CCCCC2)cc1 (stereo not drawn) :: active
C[n+]1c2cc(N)ccc2cc2ccc(N)cc21 (tested in a mixture with another compound) :: active
NCCCCCCNCCCCCCN :: active
CS(C)(=O)=O :: inactive
CCN(CC)CCCN(c1ccccc1)C1Cc2ccccc2C1 :: active

###

- target desc: Cytochrome P450 1A2 (Homo sapiens)
- measurement protocol: Cytochrome P450 Family 1 Subfamily A Member 2 (CYP1A2) small molecule antagonists: luciferase reporter qHTS assay (AID 1671199); also: nearly all actives have a fitted effect of over 50% in size
- measurement conditions: P450-Glo CYP1A2 enzyme, luciferin luminescence, 1 h; series mostly up to 115 µM
- Description: National Center for Advancing Translational Sciences [NCATS] U.S. Environmental Protection Agency [EPA] National Institutes of Environmental Health Sciences [NIEHS] National Toxicology Program [NTP] U.S. Food and Drug Administration [FDA] Cytochrome P450 (CYP) enzymes are membrane-bound hemeproteins that play a key role in metabolism of drugs and xenobiotics. […] The luciferin products formed are detected with a luciferin detection reagent, and the amount of light produced is proportional to CYP activity. […]
Records with an inconclusive call do not appear. The source made the active and inactive calls. Calls come from the whole dose curve; as a rule, active = well fitted inhibition curve with a large enough effect in the repeat runs; inconclusive = weak or mixed curves; inactive = no such curve, though single readings can be large or run the other way.
Outcome codes: active, inactive

CCc1ccc(O)c(C(C)(C)C)c1 :: active
CC1CCCCC1 :: active
Nc1cc(Cl)c([N+](=O)[O-])cc1O :: active
CCNc1nc(NC(C)CC)nc(OC)n1 (stereo not drawn) :: active
OCCCc1cccnc1 :: inactive
CCCC(CC)CCCCCCCN (stereo not drawn) :: active
Cc1oc(-c2ccccc2)nc1CCOc1ccc(C[C@H](Nc2ccccc2C(=O)c2ccccc2)C(=O)O)cc1 :: inactive
Cc1cnccn1 :: inactive
C=C(c1ccc(C(=O)O)cc1)c1cc2c(cc1C)C(C)(C)CCC2(C)C :: inactive
Cc1ccc(N)cc1O :: active
CO[Si](CCC1CCC2OC2C1)(OC)OC (stereo not drawn) :: inactive
SCCCCCCCCS :: inactive
Cc1c(-c2ccc(O)cc2)n(Cc2ccc(OCCN3CCCCCC3)cc2)c2ccc(O)cc12 :: inactive
CCCCCCCC/C=C\CCCCCCCC(=O)NCc1ccc(O)c(OC)c1 :: active
CN(C)c1ccc(N=NS(=O)(=O)O)cc1 :: active
CCCC(=O)OCC(COC(=O)CCC)OC(=O)CCC :: active
C=C1C(C)(C)[C@@]2(Cl)C(Cl)[C@]1(Cl)C(Cl)(Cl)C2(Cl)Cl (stereo partly drawn) :: active
O=C1Nc2ccc(Cl)cc2[C@@](C#CC2CC2)(C(F)(F)F)O1 :: active
CCN(CC)CCSC(=O)C(c1ccccc1)c1ccccc1 :: active
NC(=O)C(=O)N/N=C/c1ccc([N+](=O)[O-])o1 :: inactive
CS(C)(=O)=O :: inactive
CCOC(OCC)C(=O)c1ccccc1 :: active
CCCCCCCC/C=C\CCCCCCCC(=O)N(C)CC(=O)O :: inactive
O=C(Nc1ccc(Cl)cc1)Nc1ccc(Cl)c(C(F)(F)F)c1 :: active
CCCCN(C)C :: inactive
Cc1cccc(C)c1NC(=O)CN1CCN(CCCC(c2ccc(F)cc2)c2ccc(F)cc2)CC1 :: inactive
CCCCCCCCC(C)=O :: inactive
CCC(C)C(=O)OC (stereo not drawn) :: inactive
Cn1cccc1 :: inactive
C=C[C@](C)(O)CC[C@@H]1[C@@]2(C)CCCC(C)(C)[C@@H]2CC[C@@]1(C)O :: active
O=C1OC(=O)c2cccc3cccc1c23 :: active
COc1cc(C(=O)NS(=O)(=O)c2ccccc2C)ccc1Cc1cn(C)c2ccc(NC(=O)OC3CCCC3)cc12 :: inactive
O=C[C@H](O)[C@H](O)[C@H](O)CO :: inactive
O=C(O)CCn1c2c(c3ccccc31)C[C@H](NS(=O)(=O)c1ccc(F)cc1)CC2 :: inactive
[O]=[Zr] :: active
C=CC(C)(CCC=C(C)C)OC(=O)/C=C/c1ccccc1 (stereo not drawn) :: active
CC(C)C(=O)OCc1ccccc1 :: inactive
CN(C)CCN1CCOCC1 :: inactive
